I'd appreciate it if you could supply Percent Cytotoxicity values for the items below.
- System: MOLT-4 (leukemia)
- test: MTT cytotoxicity assay, 72 hours (Example 13)
- Type: cell-based, human
- experimental conditions: MOLT4, 100 nM
Non-standard residues stand in square brackets, D forms with d. Residues, ends and D or L forms follow the SMILES beside them. Aib = CC(C)(N)C(=O)O
All answers are understood in %, so give the number only.

Prompt line: Quick check: Percent Cytotoxicity of CC[C@H](C)[C@H](NC(=O)[C@H](Cc1c[nH]cn1)NC(=O)C(C)(C)NC(=O)[C@@H](NC(=O)[C@H](C)NC(=O)[C@H](Cc1c[nH]c2ccccc12)NC(=O)[C@H](CCC(N)=O)NC(=O)[C@H](N)Cc1ccccc1)C(C)C)C(N)=O [SEQ ID: 7, D-Phe-Gln-Trp-Ala-Val-Aib-His-Ile-NH2] (H-[dF]QWAV[Aib]HI-NH2; N-terminus assumed) ?
Response line: 13.1

Prompt line: What Percent Cytotoxicity value was documented for this molecule, CCCC(CCC)(NC(=O)[C@@H](NC(=O)[C@H](C)NC(=O)[C@@H](Cc1c[nH]c2ccccc12)NC(=O)[C@H](CCC(N)=O)NC(=O)[C@H](N)Cc1ccccc1)C(C)C)C(=O)N[C@@H](Cc1c[nH]cn1)C(=O)N[C@@H](CC(C)C)C(N)=O [SEQ ID: 8, D-Phe-Gln-D-Trp-Ala-Val-Dpg-His-Leu-NH2] ?
Response line: 2.6
